biological target: UniProtKB P29477; conditions: read-out: Ki iNOS; Ki from IC50 by Cheng-Prusoff
Mark 1.0 only for Ki values smaller than 2000 nM; exact matches and larger values are 0.0.

These recorded examples may help you get a feel for the data.
Fc1cccc(C2CC2CNCCc2ccnc(-n3ccnc3)n2)c1 (stereo not drawn); 1.0
N#Cc1cccc(CNCCc2ccnc(-n3ccnc3)n2)c1; 0.0
Fc1cccc(CCCNCc2ccnc(-n3ccnc3)n2)c1; 0.0
Fc1cccc(CCCNCCc2ccnc(-n3ccnc3)n2)c1; 1.0

Exam item: Answer whether the compound `Fc1cccc(CCNCCc2ccnc(-n3ccnc3)n2)c1` has Ki strictly less than 2000 nM
Marked response: 1.0

Exam item: Answer whether the compound `Fc1cccc(CCNCCNc2ccnc(-n3ccnc3)n2)c1` has Ki strictly less than 2000 nM
Marked response: 0.0
